src = the supplement of paper PMC8253809

- Tested on: SUDIPGIV (diffuse intrinsic pontine glioma line)
- test description: growth inhibition (% activity, log2 RLU normalised to DMSO / staurosporine); higher = more growth inhibition
- condition details: 33 µM

| molecule | target entity | unit | growth inhibition |
| --- | --- | --- | --- |
| CN1[C@@H]2CC[C@H]1C[C@@H](OC(c1ccccc1)c1ccccc1)C2 | SUDIPGIV | % | 2.1 |
| CCOc1ccc(NC(C)=O)cc1 | SUDIPGIV | % | 2.49 |
| OC(CCN1CCCC1)(c1ccccc1)C1CCCCC1 (stereo not given) | SUDIPGIV | % | -0.217 |
| CN(Cc1ccc(C(C)(C)C)cc1)Cc1cccc2ccccc12 | SUDIPGIV | % | 3.24 |
| CC1(C)[C@@H](OC(=O)CCC(=O)O)CC[C@]2(C)[C@H]3C(=O)C=C4[C@@H]5C[C@@](C)(C(=O)O)CC[C@]5(C)CC[C@@]4(C)[C@]3(C)CC[C@@H]12 | SUDIPGIV | % | -0.927 |
| NC[C@H]1CC[C@H](C(=O)O)CC1 | SUDIPGIV | % | -1.18 |
| NS(=O)(=O)c1cc2c(cc1Cl)NCNS2(=O)=O | SUDIPGIV | % | -0.42 |
| CN(C)CCOc1ccc(/C(=C(/CCCl)c2ccccc2)c2ccccc2)cc1 | SUDIPGIV | % | 2.82 |
| CNC(=O)CN(CCN(CCN(CC(=O)[O-])CC(=O)NC)CC(=O)[O-])CC(=O)[O-].[Gd+3] | SUDIPGIV | % | -1.08 |
| N#CC1(c2ccc(NC(=O)c3cccnc3NCc3ccncc3)cc2)CCCC1 | SUDIPGIV | % | 7.08 |
